These data points were gathered from the supplement of paper PMC6555819.

- Test system: PPARg DBDmut IVT, anti-PPARg (DBD mutation: PPARg1 K132A/R137A, NR concentration 270 nM)
- assay: PBM binding z-score (relative to random genomic background probes); higher = stronger binding; sequences stand for … in GC…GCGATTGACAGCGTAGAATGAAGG
Think of 0.7 as a floor: if PBM binding z-score stands on it or above, it is Yes; beneath it, No.

monomer_sequence	label
GCTGCTAGGTCAGGTTGGGCAGCTAACGGGTACG	No
TCTAGCAGGCCAGAGGGTCTCTCAAGAGGTACGG	No
CAAACTAGGTCACAGAGATCAAAGTCCGTGCGTA	Yes
CCAACTGGGCCATCAGGTCATTGATATCAACGTT	No
CGAACTAGGTCATCCAGTACAGTGAATACATTGA	Yes
CCTACTGGGCCAAAAAGGTTATTGATGCCGATAA	No
CCTTACGGGTCACTGACAGGTTATATCATTTGGA	No
ATCTCTAGGTAAGACTCAGTTCAATGAAGAACGC	Yes
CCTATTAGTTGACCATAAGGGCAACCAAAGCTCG	No
TCTAGTTGGTCAAAGGTCACACACTCGAAATGCG	Yes

**Q:** Identify whether the reported PBM binding z-score of the following sequence is 0.7 or greater: `CCTTACGGGTCACACCAGGTTATAGCATCGGAGT`
**A:** No

**Q:** Identify whether the reported PBM binding z-score of the following sequence is 0.7 or greater: `TCTATTAGTTGATTAGGGTAACCGAAACAGCGGA`
**A:** Yes

**Q:** Identify whether the reported PBM binding z-score of the following sequence is 0.7 or greater: `TTAACAAGGTGAAGGTCGTTGATCCCTCTGTAGA`
**A:** No

**Q:** Identify whether the reported PBM binding z-score of the following sequence is 0.7 or greater: `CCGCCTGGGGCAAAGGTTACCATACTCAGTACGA`
**A:** No

**Q:** Identify whether the reported PBM binding z-score of the following sequence is 0.7 or greater: `TCTGTTAGTTGATTAGGGCAACCGAAACAGCGGA`
**A:** Yes

**Q:** Identify whether the reported PBM binding z-score of the following sequence is 0.7 or greater: `ATCTCTAGGTAAGCAAGTTCAGTGAATGCCGAAC`
**A:** No

**Q:** Identify whether the reported PBM binding z-score of the following sequence is 0.7 or greater: `TCTAGTAGGTTAGTCGGGGCATTCAGCCAACATA`
**A:** Yes

**Q:** Identify whether the reported PBM binding z-score of the following sequence is 0.7 or greater: `ATCGAAAGGTCGTGAGGTGAGTATCCAGAAAGGC`
**A:** Yes

**Q:** Identify whether the reported PBM binding z-score of the following sequence is 0.7 or greater: `ATCTCTAGGTAACCAAGTTCGGTGAATGCCGAAC`
**A:** Yes

**Q:** Identify whether the reported PBM binding z-score of the following sequence is 0.7 or greater: `GCTAGTTGGTCAGTAAAAGGCCACACACCGGTCG`
**A:** No

**Q:** Identify whether the reported PBM binding z-score of the following sequence is 0.7 or greater: `TTACCAAGGTGAAGCTCGTTGATCCCTCTGTAGA`
**A:** No

**Q:** Identify whether the reported PBM binding z-score of the following sequence is 0.7 or greater: `TCAGACAGGTGAAAGTAACTCAGGTACGCAGTCG`
**A:** No

**Q:** Identify whether the reported PBM binding z-score of the following sequence is 0.7 or greater: `TCATATAGGTAAAAGGTGCAAGTCGGTGTGGTAA`
**A:** Yes

**Q:** Identify whether the reported PBM binding z-score of the following sequence is 0.7 or greater: `ATCTCTAGGTAAAGATATTTCAGTGAATGCAAAT`
**A:** Yes

**Q:** Identify whether the reported PBM binding z-score of the following sequence is 0.7 or greater: `AGAATGAGGTTATTAAGATCAGGGAATTGCGGTC`
**A:** No

----------
Listed here are sequences together with their documented PBM binding z-score.
- Test system: VDR:RXRa (NR concentration 270 nM, RXRa partner concentration 90 nM)
- assay: PBM binding z-score (relative to random genomic background probes); higher = stronger binding; sequences stand for … in GC…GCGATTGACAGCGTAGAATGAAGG
Quick one: just the number, no unit, thanks!

These recorded examples may help you get a feel for the data.
monomer_sequence	result
CTCGAAAGGTCGGTTGAGGTGGGTATACGGATAA	1.63
CGAACTAGGACAGAACAGGACAGTGAAGGATGAT	-0.358
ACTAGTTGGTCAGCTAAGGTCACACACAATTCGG	3.99
TAGCCTAGGTCATTCGGGCCAGTATAGTGTCGGC	3.94
CCGACTCGGGCATAAGGTTACCATAAGCCAGCCC	-0.121
ACTAGCAGGGCAAGTTTGGGTCACTCAAACAAAG	1.32

Data point: `AGAATGAGGTTATACGTAGAGCAGGGAAGAAAGT` ; PBM binding z-score = 1.23

----------
- System: RARg homodimer (NR concentration 270 nM)
- assay: PBM binding z-score (relative to random genomic background probes); higher = stronger binding; sequences stand for … in GC…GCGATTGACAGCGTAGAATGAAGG
Note to self: class labels come from recorded PBM binding z-score, ranges listed here: b0 = under 0.7, b1 = from 0.7 up to 3, b2 = 3 and over

monomer_sequence	study_system	label
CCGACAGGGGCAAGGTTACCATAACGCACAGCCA	RARg homodimer (NR concentration 270 nM)	b1

**Q:** # classify by PBM binding z-score band: `ATATGTAGGGTAGCTGGGGTCATTCAGACTAGGC`
**A:** b1

**Q:** # classify by PBM binding z-score band: `ACTATTATTTGAGACGAGGGCAACCGATAGGTTG`
**A:** b1

**Q:** # classify by PBM binding z-score band: `CGTCCAGGGTCAGCAGGTCAGTGAAAGCGACGTG`
**A:** b2

**Q:** # classify by PBM binding z-score band: `ATCGAAAGGTCGACGAGGTGGGTATACACCGTTT`
**A:** b2

**Q:** # classify by PBM binding z-score band: `CCTACTGGCCCATCAGGTCATTGATATCAACGTT`
**A:** b1

**Q:** # classify by PBM binding z-score band: `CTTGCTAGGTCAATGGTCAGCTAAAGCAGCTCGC`
**A:** b2

**Q:** # classify by PBM binding z-score band: `TCTATTAGTTGAAGGGCACCCGACGAGTCCGTTT`
**A:** b0

**Q:** # classify by PBM binding z-score band: `GCTACTAGGTCAACTGATGGTCAGCTAAAGCTCG`
**A:** b2

**Q:** # classify by PBM binding z-score band: `ATCTCTAGGTAAGACTTAGTTCAGTGAAGAACGC`
**A:** b0

**Q:** # classify by PBM binding z-score band: `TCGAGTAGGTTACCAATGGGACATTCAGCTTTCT`
**A:** b0

**Q:** # classify by PBM binding z-score band: `CAAACTAGGTCACCGGAAGGTCAAAGCCCGCATG`
**A:** b2

**Q:** # classify by PBM binding z-score band: `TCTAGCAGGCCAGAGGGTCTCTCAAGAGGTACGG`
**A:** b0

**Q:** # classify by PBM binding z-score band: `ATATTTAGGTTAAGGGTCATTCAGGTTGGTTCGC`
**A:** b2

**Q:** # classify by PBM binding z-score band: `AGAACGAGGGTACGCTGAGTTGATAGCAGAGTAG`
**A:** b0

----------
- Test system: VDR:RXRa (NR concentration 270 nM, RXRa partner concentration 90 nM)
- assay: PBM binding z-score (relative to random genomic background probes); higher = stronger binding; sequences stand for … in GC…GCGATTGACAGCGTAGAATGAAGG
Think of 1 as a floor: if PBM binding z-score stands on it or above, it is T; beneath it, F.

Some solved cases for reference:
monomer_sequence	label
CCTACCGGGCCATTCAGAGGTCATTGATCATATG	T
AGAATGAGGGTATTAAGATCAGGGAATTGCGGTC	F
CGTCCAAGGTCATAGGCGGTCAGTGAAGACAGAT	T
GGAACGAGGGCAGAGTTGATAGCATCTGTCGACG	F
CCGACTGGGGCAGAAAGATTACCATACCATCCGG	F

**Q:** Identify whether the reported PBM binding z-score of the following sequence is 1 or greater: `GCTGCCAGGTCAGGTTGGTCAGCTAACGGGTACG`
**A:** T
